Source listed as patent US12384795B2.

experimentNotes: in vivo
conditionContext: male, Sprague-Dawley (SD), rat, in vivo
attributeMeasured: bioavailability (%)

[[record]]
compound = "C=C1c2c(-c3ccc(C(=O)Nc4ccccn4)cc3)c3c(N)ncnc3n2C[C@H]1NC(=O)C#CC [Compound S17016]"
attributemeasured = "bioavailability"
unitssymbol = "%"
measurement = 24.8


* * *

System: Human diffuse large B lymphoma cell TMD8
experimentNotes: Inhibition of proliferation of TMD8 cells in vitro (MTT, 72 h)
Assay type: cell-based
pIC50: −log10 of the molar value.
attributeMeasured: pIC50

[[record]]
molecule = "C=CC(=O)N[C@@H]1CCc2c(-c3ccc(Oc4ccccc4)cc3)c3c(N)ncnc3n2C1 [Compound S1]"
measurement = 8.22

[[record]]
molecule = "C=CC(=O)NC1Cn2c(c(-c3ccc(Oc4ccccc4)cc3)c3c(N)ncnc32)C1=C (stereo not drawn) [Compound S18s, reference compound]"
measurement = 7.80

[[record]]
molecule = "C=C1c2c(-c3ccc(Oc4ccccc4)cc3)c3c(N)ncnc3n2CC1NC(=O)C#CC (stereo not drawn) [Compound S19s]"
measurement = 7.77

